study.system: T1, Recombinant human CD137 (R&D systems), biotinylated (human, UniProt Q07011 24-186, biotinylated with EZ-Link Sulfo-NHS-LC-LC-Biotin)
T1 construct: Bought protein; Captured on a streptavidin chip; also called human CD137 protein; 4-1BB
T1 sequence (Q07011 24-186 limits assumed): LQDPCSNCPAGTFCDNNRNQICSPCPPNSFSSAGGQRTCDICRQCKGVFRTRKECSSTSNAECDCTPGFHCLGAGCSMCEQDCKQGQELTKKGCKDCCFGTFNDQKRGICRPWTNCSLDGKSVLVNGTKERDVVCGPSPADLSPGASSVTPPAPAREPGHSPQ
measurement.description: SPR (Biacore), biotinylated human CD137 captured on streptavidin chip, peptide as analyte, 25°C; BCY7742 (Monomer 3A), a separate monomer number from BCY8095
Protocol: Biacore experiments were performed to determine kₐ (M⁻¹s⁻¹), kd (s⁻¹), KD (nM) values of monomeric peptides binding to human CD137 protein. […] The protein was desalted to remove uncoupled biotin using spin columns into PBS. For analysis of peptide binding, a Biacore T200 or a Biacore 3000 instrument was used with a XanTec CMD500D chip. Streptavidin was immobilized on the chip using standard amine-coupling chemistry at 25° C. with HBS-N(10 mM HEPES, 0.15 M NaCl, pH 7.4) as the running buffer. […]
Starred links: 1 amine or outer side, 2 acyl side, 3 side chain; linkers in the order of their positions; H or OH if unused. Positions of bridges follow the written chain, without caps; N, C: chain ends. Non-standard residues stand in square brackets, D forms with d. No end group written: not given here. TATA = O=C(CC[*:1])N1CN(C(=O)CC[*:2])CN(C(=O)CC[*:3])C1; Nle = CCCC[C@H](N)C(=O)O; PYA = propargyl-acid
test.readout: Kd (nM)
Form entry: value (nM) — number only.

Short answer for Ac-ACIK(PYA)EGQYCFADPY[Nle]CA (linker 2-9-16 via TATA, Bicyclic peptide monomer; also called Monomer 3A) [BCY7742] : Kd was 855

These measurements were taken from patent US20230220008A1.
